Target: Mu-type opioid receptor (Homo sapiens)
Sequence (P35372 whole entry): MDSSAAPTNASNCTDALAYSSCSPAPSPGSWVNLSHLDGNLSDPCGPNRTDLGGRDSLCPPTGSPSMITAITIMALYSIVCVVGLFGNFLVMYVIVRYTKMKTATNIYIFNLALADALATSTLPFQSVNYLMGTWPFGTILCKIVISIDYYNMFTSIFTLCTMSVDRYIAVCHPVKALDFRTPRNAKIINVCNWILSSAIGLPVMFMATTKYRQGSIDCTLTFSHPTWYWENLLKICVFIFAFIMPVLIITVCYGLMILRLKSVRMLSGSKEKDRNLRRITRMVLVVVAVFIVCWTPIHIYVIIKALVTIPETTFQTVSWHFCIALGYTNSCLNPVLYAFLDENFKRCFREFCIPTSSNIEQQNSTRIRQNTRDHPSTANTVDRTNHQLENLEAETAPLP
Measure Name: log10(Ki) (log10 of the value in nM)

# Sample Smiles, Result Number
data = [
    ("CN1CC[C@]23Cc4[nH]c5ccccc5c4C[C@]2(Cc2ccc(O)cc23)C1", 2.02),
    ("COc1c(O)ccc2c1[C@]13CCN(C)[C@H](C2)[C@]1(O)Cc1c([nH]c2ccccc12)C3", 2.68),
    ("COc1ccc2c(c1)[C@]13CCN(CC4CC4)C[C@@]1(C2)Cc1c([nH]c2ccccc12)C3", 3.15),
    ("COc1ccc2c(c1)[C@]13CCN(C)C[C@@]1(C2)Cc1c([nH]c2ccccc12)C3", 3.26),
    ("CN1CC[C@]23Cc4c(c5ccccc5n4C)C[C@]2(Cc2ccc(O)cc23)C1", 1.60),
    ("Cn1c2c(c3ccccc31)C[C@@]13Cc4ccc(O)cc4[C@@]1(CCN(CC1CC1)C3)C2", 2.67),
    ("COc1ccc2c(c1)[C@]13CCN(C)C[C@@]1(C2)Cc1c(n(C)c2ccccc12)C3", 2.85),
    ("COc1ccc2c(c1O)[C@]13CCN(C)[C@H](C2)[C@]1(O)Cc1c([nH]c2ccccc12)C3", 3.27),
    ("Oc1ccc2c(c1)[C@]13CCN(CC4CC4)C[C@@]1(C2)Cc1c([nH]c2ccccc12)C3", 2.72),
]

* * *

Examples of molecules with documented Ki follow.
Molecular target: Delta-type opioid receptor (Homo sapiens)
Sequence (P41143 whole entry): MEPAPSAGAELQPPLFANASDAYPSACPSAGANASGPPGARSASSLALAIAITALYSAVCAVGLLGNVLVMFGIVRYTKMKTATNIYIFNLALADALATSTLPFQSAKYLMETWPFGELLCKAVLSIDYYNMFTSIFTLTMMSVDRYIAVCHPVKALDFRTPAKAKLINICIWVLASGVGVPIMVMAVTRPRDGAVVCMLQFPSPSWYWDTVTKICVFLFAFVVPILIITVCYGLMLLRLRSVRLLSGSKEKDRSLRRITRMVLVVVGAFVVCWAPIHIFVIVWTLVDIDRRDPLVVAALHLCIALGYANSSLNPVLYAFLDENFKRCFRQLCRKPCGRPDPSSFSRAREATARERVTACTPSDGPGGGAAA
Assay: Displacement of [3H]naltrindole from human delta opioid receptor expressed in CHO cells
Measure Name: Ki

# Sample Smiles, Result
rows = [
    ("CN1CC[C@]23Cc4[nH]c5ccccc5c4C[C@]2(Cc2ccc(O)cc23)C1", "1120 nM"),
    ("COc1ccc2c(c1)[C@]13CCN(C)C[C@@]1(C2)Cc1c(n(C)c2ccccc12)C3", "> 10000 nM"),
    ("COc1ccc2c(c1)[C@]13CCN(C)C[C@@]1(C2)Cc1c([nH]c2ccccc12)C3", "765 nM"),
    ("CN1CC[C@]23Cc4c(c5ccccc5n4C)C[C@]2(Cc2ccc(O)cc23)C1", "268 nM"),
    ("Oc1ccc2c(c1)[C@]13CCN(CC4CC4)C[C@@]1(C2)Cc1c([nH]c2ccccc12)C3", "2550 nM"),
    ("COc1c(O)ccc2c1[C@]13CCN(C)[C@H](C2)[C@]1(O)Cc1c([nH]c2ccccc12)C3", "4.5 nM"),
    ("COc1ccc2c(c1)[C@]13CCN(CC4CC4)C[C@@]1(C2)Cc1c([nH]c2ccccc12)C3", "6650 nM"),
    ("COc1ccc2c(c1O)[C@]13CCN(C)[C@H](C2)[C@]1(O)Cc1c([nH]c2ccccc12)C3", "21.8 nM"),
    ("Cn1c2c(c3ccccc31)C[C@@]13Cc4ccc(O)cc4[C@@]1(CCN(CC1CC1)C3)C2", "1790 nM"),
]

* * *

Notes on Ki obtained with Kappa-type opioid receptor (Homo sapiens, UniProt P41145).
Sequence (P41145 whole entry): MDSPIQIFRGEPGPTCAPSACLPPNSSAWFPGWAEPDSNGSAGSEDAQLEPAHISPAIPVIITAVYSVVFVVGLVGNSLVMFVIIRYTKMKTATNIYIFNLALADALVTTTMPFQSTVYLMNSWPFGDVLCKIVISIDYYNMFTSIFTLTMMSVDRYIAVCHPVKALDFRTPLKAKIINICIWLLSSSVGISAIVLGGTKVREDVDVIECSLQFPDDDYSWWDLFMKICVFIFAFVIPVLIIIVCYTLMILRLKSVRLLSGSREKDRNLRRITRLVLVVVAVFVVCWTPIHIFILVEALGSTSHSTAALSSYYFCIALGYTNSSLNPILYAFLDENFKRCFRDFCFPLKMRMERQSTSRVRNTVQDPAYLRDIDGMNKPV
Measure Name: Ki (nM)

# Sample Smiles, Measure Name, Result Number
rows = [
    ("CN1CC[C@]23Cc4c(c5ccccc5n4C)C[C@]2(Cc2ccc(O)cc23)C1", "Ki", 1120),
    ("COc1ccc2c(c1)[C@]13CCN(C)C[C@@]1(C2)Cc1c([nH]c2ccccc12)C3", "Ki", 5120),
    ("COc1ccc2c(c1)[C@]13CCN(C)C[C@@]1(C2)Cc1c(n(C)c2ccccc12)C3", "Ki", 3810),
    ("Cn1c2c(c3ccccc31)C[C@@]13Cc4ccc(O)cc4[C@@]1(CCN(CC1CC1)C3)C2", "Ki", 1520),
    ("Oc1ccc2c(c1)[C@]13CCN(CC4CC4)C[C@@]1(C2)Cc1c([nH]c2ccccc12)C3", "Ki", 704),
    ("COc1ccc2c(c1)[C@]13CCN(CC4CC4)C[C@@]1(C2)Cc1c([nH]c2ccccc12)C3", "Ki", 2550),
    ("COc1ccc2c(c1O)[C@]13CCN(C)[C@H](C2)[C@]1(O)Cc1c([nH]c2ccccc12)C3", "Ki", 3160),
    ("CN1CC[C@]23Cc4[nH]c5ccccc5c4C[C@]2(Cc2ccc(O)cc23)C1", "Ki", 1190),
]

* * *

Biological target: Delta-type opioid receptor (Homo sapiens)
Experiment: Agonist activity at human delta opioid receptor expressed in CHO cells assessed as stimulation of [35S]GTPgammaS binding by scintillation counting
Assay type: functional, cell-based
Examples of compounds with documented EC50 follow.

# Sample Smiles, Assay System, EC50, nM
rows = [
    ("CN1CC[C@]23Cc4c(c5ccccc5n4C)C[C@]2(Cc2ccc(O)cc23)C1", "Delta-type opioid receptor (Homo sapiens)", 65),
    ("Oc1ccc2c(c1)[C@]13CCN(CC4CC4)C[C@@]1(C2)Cc1c([nH]c2ccccc12)C3", "Delta-type opioid receptor (Homo sapiens)", 10),
]

* * *

Target: Mu-type opioid receptor (Homo sapiens)
Experiment: Agonist activity at human mu opioid receptor expressed in CHO cells assessed as stimulation of [35S]GTPgammaS binding by scintillation counting
pEC50: −log10 of the molar value.
Examples of compounds with documented pEC50 follow.

# Sample Smiles, Assay System, pEC50
measured = [
    ("Oc1ccc2c(c1)[C@]13CCN(CC4CC4)C[C@@]1(C2)Cc1c([nH]c2ccccc12)C3", "Mu-type opioid receptor (Homo sapiens)", 7.48),
    ("CN1CC[C@]23Cc4c(c5ccccc5n4C)C[C@]2(Cc2ccc(O)cc23)C1", "Mu-type opioid receptor (Homo sapiens)", 6.76),
]

* * *

Target: Kappa-type opioid receptor (Homo sapiens, UniProt P41145)
Assay: Agonist activity at human kappa opioid receptor expressed in CHO cells assessed as stimulation of [35S]GTPgammaS binding by scintillation counting
pEC50: −log10 of the molar value.
Examples of compounds with documented pEC50 follow.

# Sample Smiles, Assay System, pEC50
measured = [
    ("Oc1ccc2c(c1)[C@]13CCN(CC4CC4)C[C@@]1(C2)Cc1c([nH]c2ccccc12)C3", "Kappa-type opioid receptor (Homo sapiens, UniProt P41145)", 7.17),
    ("CN1CC[C@]23Cc4c(c5ccccc5n4C)C[C@]2(Cc2ccc(O)cc23)C1", "Kappa-type opioid receptor (Homo sapiens, UniProt P41145)", 7.21),
]
